Each entry below carries its recorded ED50.
- Tested on: ptosis (eye closure) induced by reserpine
- Experimental Protocol: prevention of ptosis (eye closure) induced by reserpine in rats
- Assay type: in vivo, rat (male, Charles River CD strain)
- Particulars: Rattus norvegicus, po, 3 h, dose causing 50% prevention of reserpine-induced ptosis; test compound oral; reserpine 0.75 mg/kg intravenous; scored three hours later; read-out: ED50
Field format: number, assumed mg/kg, no unit text.

{"Compound": "CCN(CC)CCSCC(=O)C1(c2ccc(Cl)c(Cl)c2)CCC1", "Endpoint Label": "ED50", "Measurement Units": "mg/kg", "Experimental Value": 9.7}
{"Compound": "CN(C)CCCSCC(O)C1(c2ccc(Cl)c(Cl)c2)CCC1.O=C(O)CC(O)(CC(=O)O)C(=O)O (single isomer, unassigned; (-))", "Endpoint Label": "ED50", "Measurement Units": "mg/kg", "Experimental Value": 2.2}
{"Compound": "CN(C)CCSCC(O)C1(c2ccc(Cl)c(Cl)c2)CCC1.Cl (stereo not shown)", "Endpoint Label": "ED50", "Measurement Units": "mg/kg", "Experimental Value": 5.7}

stdin: Param readout= ED50; system= ptosis (eye closure) induced by reserpine; entry= CN(C)CCCCSCC(=O)C1(c2ccc(Cl)c(Cl)c2)CCC1.Cl ; returns value.
stdout: 5.9

// data source = patent US5652271A
